test: clinical study, pharmacokinetics of Compound B; assay type: in vivo, human; conditions: human, blood, oral, co-administration with Compound A, 20 mg (n = 9); read-out: AUCss, Geomean (Geometric % CV)

>  <compound>
CCN(CC)CCN1CCc2[nH]c(/C=C3\C(=O)Nc4ccc(F)cc43)c(C)c2C1=O [Compound B, famitinib malate]

>  <AUC / ng·h/mL>
1330

$$$$
